Hello, the source for this data is PubChem BioAssay AID1985, in case you need it.

Test system: S. Typhi PhoP-promoter GFP reporter, fluorescence, 4 h
Assay: PhoP regulon inhibitor project modified counter assay, GFP fluorescence readout, dose response (AID 1985)
Value type: IC50

- NC(N)=N/N=C/c1ccc(OCc2ccc(Cl)cc2)cc1: 36.3 µM

Request: Look up IC50 for this molecule: `Cc1ccccc1Nc1cc(C)c2c(O)cccc2n1`
Result: 25.5 µM

Request: What do we get for `CO/N=C(/C(=O)N[C@@H]1C(=O)N2C(C(=O)O)=CCS[C@H]12)c1cnc(N)s1` ?
Result: 59.8 µM

Request: What do we get for `COc1cc([N+](=O)[O-])cc(/C=N/NC(=O)C(O)(c2ccccc2)c2ccccc2)c1O` ?
Result: 57.5 µM

----------
# Lookup of reported IC50 keyed by entry
Test system: S. Typhi PhoP-promoter GFP reporter, fluorescence, 4 h
Experiment: PhoP regulon inhibitor project modified counter assay, GFP fluorescence readout, dose response (AID 1985)

For orientation, consider the following solved cases.
• Oc1ccc(CN2CCN(Cc3ccccc3)CC2)c2cccnc12 = 39.5 µM
• C/C(=N\NC(=O)c1ccccc1O)c1cccs1 = 89.3 µM
• C/C(=N\NC(=O)c1cccc(Br)c1)c1ccccn1 = 54.4 µM
• O=C(N/N=C/c1cc(Cl)cc(Cl)c1O)c1ccncc1 = 20.2 µM
• CCn1cc(C(=O)O)c(=O)c2cc(F)c(N3CCN(C(=S)NC(=O)c4cc(OC)cc(OC)c4)CC3)cc21 = 3.11 µM

Request: Param readout = IC50; param system = S. Typhi PhoP-promoter GFP reporter, fluorescence, 4 h; param query = `Cc1occc1C(=O)N/N=C/c1cccs1` ; response: value
Result: 45.7 µM

Request: What do we get for `O=C(NCCCN1CCN(c2ccc(F)cc2)CC1)Nc1ccc([N+](=O)[O-])cc1` ?
Result: 117 µM

Request: What do we get for CCCCCCCCNC(C)C(O)c1ccc(SC(C)C)cc1 (centres undefined) ?
Result: 41.8 µM

Request: What do we get for CCN1c2ccccc2NC2N=C(OC)C(c3ccccc3)C21 (centres undefined) ?
Result: 55.8 µM

Request: What do we get for `CN(C)CCCNc1cc(C(C)(C)C)nc2c(-c3ccc(Cl)cc3)cnn12` ?
Result: 34.8 µM

Request: What do we get for `CCn1cc(C(=O)O)c(=O)c2cc(F)c(N3CCN(C(=S)NC(=O)c4ccccc4F)CC3)cc21` ?
Result: 62.8 µM

Request: What do we get for `COc1cc(CNCCc2c[nH]c3ccccc23)ccc1OCc1ccc(F)cc1` ?
Result: 82.7 µM

Request: What do we get for `CCOC(=O)c1c(N)sc(C(=O)Nc2ccc3c(c2)OCO3)c1C` ?
Result: 137 µM

----------
# Lookup of reported pIC50 keyed by entry
Test system: S. Typhi PhoP-promoter GFP reporter, fluorescence, 4 h
Experiment: PhoP regulon inhibitor project modified counter assay, GFP fluorescence readout, dose response (AID 1985)
For clarity, pIC50 is expressed as the negative log10 of concentration in mol/L.

Request: Look up pIC50 for this compound: `O=C(Cn1nc(CNc2ccc(Cl)cc2)[n+]2c1CCCCC2)c1ccc(Br)cc1`
Result: 4.11

Request: What do we get for `CNCC[C@H](Oc1cccc2ccccc12)c1cccs1` ?
Result: 3.98

Request: What do we get for `COc1cccc(NC2=NC3(CCCCC3)N=C(N)N2)c1` ?
Result: 3.83

Request: What do we get for `Cc1[nH]cnc1C(=O)N/N=C/c1ccc([N+](=O)[O-])s1` ?
Result: 4.69

Request: What do we get for `O/N=C/c1ccc(OCc2ccccc2)c(Cl)c1` ?
Result: 3.89

Request: What do we get for Cc1ccc(C(C[N+](=O)[O-])Sc2ccc(N)cc2)cc1 (stereo unspecified) ?
Result: 4.53

Request: What do we get for `O=c1c2c([nH]c3ccccc13)CCCCC2` ?
Result: 4.11

Request: What do we get for `COc1ccc(C(=O)NC(=S)NNC(=O)c2cnccn2)cc1` ?
Result: 4.09

Request: What do we get for `C#CCOCCOCCOCCNc1nc(N2CCN(C(=O)CCCCCCCCCCNC(=O)[C@H](CCCCN)n3cc(CCO)nn3)CC2)nc(N2CCN(C(=O)CCCCCCCCCCNC(=O)[C@H](CCCN=C(N)N)n3cc(C[C@@H](C)CC)nn3)CC2)n1` ?
Result: 4.25

Request: What do we get for `O=C(/C=C/c1ccccc1)NC(=S)NNC(=O)c1cnccn1` ?
Result: 3.83

Request: What do we get for `Cc1cc(NC2CCCCC2)nc(NCc2ccccc2)n1` ?
Result: 4.11

----------
Test system: S. Typhi PhoP-promoter GFP reporter, fluorescence, 4 h
Assay: PhoP regulon inhibitor project modified counter assay, GFP fluorescence readout, dose response (AID 1985)
Value type: IC50

• O=C(Nc1nnc(C2COc3ccccc3O2)o1)c1ccc(F)cc1 (stereo unspecified) = 40.9 µM
• CN(C)CC/C=C1/c2ccccc2Sc2ccc(Cl)cc21 = 86.2 µM
• Cc1cc(=O)[nH]c(-n2nc(C)cc2C)n1 = 67.5 µM
• O=C(Oc1c(Cl)cc(Cl)c2cccnc12)c1ccco1 = 11.9 µM
• O=C(/C=C/c1cccs1)NC(=S)NNC(=O)c1ccccc1O = 27 µM

Consider now this further compound.
Request: Param readout = IC50; param system = S. Typhi PhoP-promoter GFP reporter, fluorescence, 4 h; param query = Cc1ccc(Cn2c(=N)n(CC(O)COc3ccccc3)c3ccccc32)cc1 (stereo unspecified) ; response: value
Result: 83.6 µM

----------
# Lookup of reported IC50 keyed by entry
Tested on: S. Typhi PhoP-promoter GFP reporter, fluorescence, 4 h
Assay: PhoP regulon inhibitor project modified counter assay, GFP fluorescence readout, dose response (AID 1985)

For orientation, consider the following solved cases.
- CCn1cc(C(=O)O)c(=O)c2cc(F)c(N3CCN(C(=S)Nc4ccc(OC)cc4)CC3)cc21: 5.64 µM
- Cc1cc([N+](=O)[O-])cc(/C=N\NC(=O)C2COc3ccccc3O2)c1O (configuration not stated): 23.3 µM
- CNc1nc(SC)n(C)c(=O)c1N=O: 80.3 µM
- C=CCNc1ncnc2c1[nH]c1ccc(Cl)cc12: 49.2 µM
- O=C(N/N=C/c1ccccc1O)C1SCCCS1: 82.7 µM
- Fc1cccc(Nc2c3c(nc4ccccc24)CCC3)c1: 126 µM
- c1ccc(Sc2cccc3ccccc23)c(CNC2=NCCN2)c1: 80 µM
- Cc1c2ccncc2c(C)c2c1[nH]c1ccccc12: 32.9 µM
- c1ccc2cc(CSCc3nc4ccccc4[nH]3)ccc2c1: 103 µM
- CN(C)c1ccc2nc3ccc(=[N+](C)C)cc-3sc2c1: 22.7 µM

Request: Param readout = IC50; param system = S. Typhi PhoP-promoter GFP reporter, fluorescence, 4 h; param query = `O=C1CC(NC(=O)C(F)(F)F)=NN1c1ccccc1` ; response: value
Result: 143 µM

Request: What do we get for `COc1cc([N+](=O)[O-])cc(/C=N/NC(=O)CSc2ccccn2)c1O` ?
Result: 77.7 µM

----------
Test system: S. Typhi PhoP-promoter GFP reporter, fluorescence, 4 h
Assay: PhoP regulon inhibitor project modified counter assay, GFP fluorescence readout, dose response (AID 1985)
# Lookup of reported IC50 keyed by entry

For orientation, consider the following solved cases.
* COc1ccc2[nH]c3c(C)c4ccncc4c(C)c3c2c1 | 39.2 µM
* C/C(O)=C\c1nc2ccccc2oc1=O | 14.9 µM

Request: Look up IC50 for this molecule: `CCN(CC(=O)NC(C)(C)C)C(=O)COc1c(Cl)cc(Cl)c2ccc(C)nc12`
Result: 43.5 µM

Request: What do we get for `Cc1nnc(N/N=C/c2ccccn2)[nH]c1=O` ?
Result: 31.1 µM

Request: What do we get for CCCCCCOC(=O)C[N+](C)(C)CCOC1CC2CCC1(C)C2(C)C (stereo unspecified) ?
Result: 48 µM

Request: What do we get for CC1CCC(C(C)C)C(OC(=O)Cn2c(-c3ccc(Cl)cc3)[n+](C)c3ccccc32)C1 (stereo unspecified) ?
Result: 144 µM

----------
Test system: S. Typhi PhoP-promoter GFP reporter, fluorescence, 4 h
Assay: PhoP regulon inhibitor project modified counter assay, GFP fluorescence readout, dose response (AID 1985)
# Lookup of reported pIC50 keyed by entry
For clarity, pIC50 is expressed as the negative log10 of concentration in mol/L.

For orientation, consider the following solved cases.
- N#C/C(=C(/O)c1ccco1)c1nc2ccccc2s1: 4.26
- CCCCCC[N+](C)(C)CC/C=C1/c2ccccc2Sc2ccc(Cl)cc21: 4.44
- Cc1cc(C)c2c(N)c3ccccc3nc2n1: 4.07
- CS(=O)(=O)c1ccc2nc(NC(=O)c3ccc(Cl)nc3)sc2c1: 4.09

Request: Look up pIC50 for this compound: O=C1C2=C(Nc3ccccc3SC2c2ccco2)c2ccccc21 (stereo unspecified)
Result: 3.92

Request: What do we get for `O=C(CNCCC1=CCCCC1)Nc1ccc(N2CCCCCC2)cc1` ?
Result: 4.27

Request: What do we get for O=C1NCCCC1C(=O)N/N=C/c1cc([N+](=O)[O-])ccc1O (stereo unspecified) ?
Result: 3.94

Request: What do we get for CC1CCc2cc(F)cc3c(=O)c(C(=O)O)cn1c23 (stereo unspecified) ?
Result: 5.02

Request: What do we get for Cc1ccc(NC(=O)CS(=O)CC(=O)Nc2ccccc2-c2ccc(C)o2)cc1 (stereo unspecified) ?
Result: 4.18

Request: What do we get for `Cc1ccc(NC(=S)Nc2ccc(S(=O)(=O)Nc3ncccn3)cc2)cc1Cl` ?
Result: 3.99

Request: What do we get for CN1CCN(C2Cc3ccc(Cl)cc3Sc3ccc(F)cc32)CC1 (stereo unspecified) ?
Result: 4.40
